B1: Ankyrin-2, residues 3571 to 3650; numbered along this chain, Q01484 (parent)
chain: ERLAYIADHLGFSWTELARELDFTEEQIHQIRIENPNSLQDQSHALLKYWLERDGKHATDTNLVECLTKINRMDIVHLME

Variants of: B1
PROTOCOL TEXT: abundance fitness (aPCA) (normalised: wild type 0, dead -1); higher = more abundant; growth selection in yeast, the domain comes from the species named
EXPERIMENTAL PARAMETERS: Homo sapiens
Would you mind telling me the reported abundance fitness of each entry?
Give bare numbers.

ERPAYIADHLGFSWTELARELDFTEEQIHQIRIENPNSLQDQSHALLKYWLERDGKHATDTNLVECLTKINRMDIVHLME [L3P]
-0.215
ERLAYIADHLGFSWTELARELDFTEEQIHQIRIENPNSLQDQSHALLKYWLELDGKHATDTNLVECLTKINRMDIVHLME [R53L]
-0.236
ERLAYIADHLGFSWTELARELDFTEEQMHQIRIENPNSLQDQSHALLKYWLERDGKHATDTNLVECLTKINRMDIVHLME [I28M]
-0.064
ERAAYIADHLGFSWTELARELDFTEEQIHQIRIENPNSLQDQSHALLKYWLERDGKHATDTNLVECLTKINRMDIVHLME [L3A]
-0.164
ERLAYIADHLGFSWTELARELDFTEEQIHQIRIENPNSLQDQSHALLKYWLERDGKHACDTNLVECLTKINRMDIVHLME [T59C]
-0.095
ERLAYIADHLGFGWTELARELDFTEEQIHQIRIENPNSLQDQSHALLKYWLERDGKHATDTNLVECLTKINRMDIVHLME [S13G]
-0.035

Report abundance fitness for each item below.
1. ERLAYIADHLGFSWTELARMLDFTEEQIHQIRIENPNSLQDQSHALLKYWLERDGKHATDTNLVECLTKINRMDIVHLME [E20M]
2. ERLAYIADHLGFSWTELARELDFTEEQIHEIRIENPNSLQDQSHALLKYWLERDGKHATDTNLVECLTKINRMDIVHLME [Q30E]

1. 0.089
2. 0.005

Report abundance fitness for each item below.
1. ERLAYIADHLGFSWTELARELVFTEEQIHQIRIENPNSLQDQSHALLKYWLERDGKHATDTNLVECLTKINRMDIVHLME [D22V]
2. ERLAYIADHLGFSWTELARELDFTEEQIHQIRAENPNSLQDQSHALLKYWLERDGKHATDTNLVECLTKINRMDIVHLME [I33A]
3. ERLAYIADHLGFSWTELTRELDFTEEQIHQIRIENPNSLQDQSHALLKYWLERDGKHATDTNLVECLTKINRMDIVHLME [A18T]

[-0.206, -0.034, -0.903]
